# Test system: Rattus norvegicus
# assay comment: In vivo area under curve in rat plasma exposure after oral administration 50 mg/kg
# Assay type: ADME, organism-based
# Set-up: dose 50 mg/kg, route oral
quantity name: AUC (ng·h/mL)

Please review the entries below; each comes with its answer.
• CC(C)[C@H](NC(=O)c1cnccn1)C(=O)N[C@H](C(=O)N1C[C@@H]2CCC[C@@H]2[C@H]1C(=O)NC(CC(F)F)C(=O)C(=O)NC1CC1)C(C)C (stereo not given in full) = 145
• CC(C)[C@H](NC(=O)c1cnccn1)C(=O)N[C@H](C(=O)N1C[C@@H]2CCC[C@@H]2[C@H]1C(=O)N[C@@H](CC(F)F)C(=O)C(=O)NC1CC1)C(C)(C)C = 1880
• CCC[C@H](NC(=O)[C@@H]1[C@H]2CCC[C@H]2CN1C(=O)[C@@H](NC(=O)[C@@H](NC(=O)c1cnccn1)C(C)C)C(C)(C)C)C(=O)C(=O)NC(C)CC (stereo not given in full) = 22300

[1] CCC[C@H](NC(=O)[C@@H]1[C@H]2CCC[C@H]2CN1C(=O)[C@@H](NC(=O)[C@@H](NC(=O)c1cnccn1)C(C)C)C(C)(C)C)C(=O)C(=O)NC1CC1
[2] CCCC(NC(=O)[C@@H]1[C@H]2CCC[C@H]2CN1C(=O)[C@@H](NC(=O)[C@@H](NC(=O)c1cnccn1)C(C)C)C(C)C)C(=O)C(=O)NC1CC1 (stereo not given in full)
// compare measured AUC, left 1 , right 2 , return larger When you have decided, please share the label of that item. 1

Values were extracted from ChEMBL document CHEMBL1149206.
